Could you please report measured activity at 10 µM for the items listed next?
Tested on: CDC1551(rv1405c′::GFP) reporter Mtb strain
experimental details: microbe, parasite or virus in culture
Assay type: cell-based, Mycobacterium tuberculosis
measurement setup: Mycobacterium tuberculosis; read-out: rv1405c'::GFP secondary assay NPA% at 10 µM compound
Answer in %, number only, no unit symbol.

## Input Given the entry CCCn1ncc(C(=O)NC(C)C(=O)Nc2ccc(F)cc2C)c1C (stereo not drawn) , report its measured activity at 10 µM.
## Output 91.3

## Input Likewise for CCOC(=O)Cc1cc(=O)n2nc(C(F)(F)F)c(-c3ccccc3)c2[nH]1 ?
## Output 84.5

## Input Likewise for CC(CCc1ccccc1)Nc1ncnc(-n2cccn2)c1N (stereo not drawn) ?
## Output 117

## Input Likewise for Cc1ccc(NC(=O)[C@@H]2CCCN2S(=O)(=O)c2ccccc2F)cc1 ?
## Output 98.1

## Input Likewise for CN(CC(O)c1ccccc1Cl)C1CCc2ccccc21 (stereo not drawn) ?
## Output 228

## Input Likewise for CC(C)Cc1cc(C(=O)N2CCOC(CCCc3ccccc3)C2)[nH]n1 (stereo not drawn) ?
## Output 98.4

## Input Likewise for CC(NC(=O)C1Cc2cc(Cl)ccc2O1)c1ccc(F)c(F)c1 (stereo not drawn) ?
## Output 83.2

## Input Likewise for CC(=O)N1N=C(c2c(-c3ccccc3)c3ccc(C)cc3[nH]c2=O)CC1c1ccco1 (stereo not drawn) ?
## Output 102

## Input Likewise for Cc1cc(C(C)C(=O)Nc2ccc(N3CCN(C)CC3)cn2)c(C)o1 (stereo not drawn) ?
## Output 96.9

---

tested on: CYP2C9 (Homo sapiens, UniProt P11712)
Sequence (P11712 whole entry): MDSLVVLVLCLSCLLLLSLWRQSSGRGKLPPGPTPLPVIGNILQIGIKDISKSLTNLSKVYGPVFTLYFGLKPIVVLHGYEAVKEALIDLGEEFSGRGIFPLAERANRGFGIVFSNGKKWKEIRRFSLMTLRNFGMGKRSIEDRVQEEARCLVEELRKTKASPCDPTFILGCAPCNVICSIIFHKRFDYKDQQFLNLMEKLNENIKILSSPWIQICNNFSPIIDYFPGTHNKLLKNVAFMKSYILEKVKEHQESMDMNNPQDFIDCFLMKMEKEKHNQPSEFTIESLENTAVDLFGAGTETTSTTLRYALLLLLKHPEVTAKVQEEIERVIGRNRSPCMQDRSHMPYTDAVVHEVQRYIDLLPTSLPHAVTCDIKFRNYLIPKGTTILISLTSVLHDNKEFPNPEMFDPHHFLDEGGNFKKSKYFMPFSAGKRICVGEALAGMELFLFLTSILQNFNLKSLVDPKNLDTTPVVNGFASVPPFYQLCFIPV
experimental details: Human cytochrome P450 inhibition, 2C9
Type: in vitro ADME
measurement setup: read-out: % inhibition of CYP 2C9
measurement kind: inhibition at 10 µM

## Input Given the entry CCSc1ncc(CN2CCN(c3nc4ccccc4o3)CC2)cn1 [C6] , report its measured inhibition at 10 µM.
## Output 25.7%

---

Could you please report measured AUC(0-t) for the items listed next?
experimental details: Pharmacokinetic assay, single oral dose in CD-1 mice
Assay type: in vivo
measurement setup: female, mouse, plasma; CD-1 mice, single 5 mg/kg po dose; read-out: plasma AUC0–5h
Answer in ng·h/mL, number only, no unit symbol.

## Input Given the entry O=C(c1cnc2ccccn12)N1CCCC(CCc2cccc(C(F)(F)F)c2)C1 (centres unmarked) , report its measured AUC(0-t).
## Output 42

## Input Likewise for CCSc1ncc(CN2CCN(c3nc4ccccc4o3)CC2)cn1 ?
## Output 5480

---

System: Mtb growth in J774 murine macrophage-like cells
experimental details: microbe, parasite or virus in culture
Assay type: cell-based, Mycobacterium tuberculosis
measurement setup: Mycobacterium tuberculosis, J774, 144 h, read-out: J774 tertiary assay % inhibition compared to Rif at 10 µM compound
Could you please report measured inhibition at 10 µM for the items listed next?
Answer in %, number only, no unit symbol.

## Input Given the entry N#Cc1nc(NC(=O)c2ccc(N3CCCC3)c(F)c2)[nH]c1C#N , report its measured inhibition at 10 µM.
## Output 22.2

## Input Likewise for O=C(c1cnc2ccccn12)N1CCCC(CCc2cccc(C(F)(F)F)c2)C1 (stereo not shown) ?
## Output 50.9

## Input Likewise for CCCSc1ncc(CN2CCN(c3ncnc4[nH]cnc34)CC2)cn1 ?
## Output 41.2

## Input Likewise for N=C1SCC(=O)N1c1ncc(Cc2ccccc2)s1 ?
## Output 12.1

## Input Likewise for COc1ccc(Cl)c(NS(=O)(=O)c2cnc(Cl)n2C)c1 ?
## Output 23.9

## Input Likewise for O=C(c1cnn2ccccc12)N1CCCC(CCc2cccc(C(F)(F)F)c2)C1 (stereo not shown) ?
## Output 21.4

## Input Likewise for Cc1cccc(C)c1OC1CCN(c2cncc(C(N)=O)n2)CC1 ?
## Output 21.4

## Input Likewise for CCSc1ncc(CN2CCN(c3nc4ccccc4o3)CC2)cn1 ?
## Output 40.5

## Input Likewise for Cc1c(Cl)cccc1S(=O)(=O)Nc1nn(C(C)(C)C)cc1C#N ?
## Output 9.6

## Input Likewise for CN(CC(O)c1ccccc1Cl)C1CCc2ccccc21 (stereo not shown) ?
## Output 4.8
